TESTED SYSTEM: NAD-dependent protein deacetylase sirtuin-1 (Homo sapiens) (UniProt Q96EB6)
MEASUREMENT NOTES: Inhibition of recombinant human SitT1 at 60 uM by Fluor de Lys fluorescence assay
Exercise: for every item that follows, state its recorded inhibition.
Give bare numbers, in %.

Guide cases for inhibition, answers given:
Cc1cccc(C(=O)NC(=S)Nc2ccc(NC(=O)CCCCN(C)C)cc2)c1	5.2
CC(C)c1ccc(C(=O)NC(=S)Nc2ccc(NC(=O)CCCCN(C)C)cc2)cc1	52.9

Dear reader, for each entry below, please note its inhibition.
1. CN(C)CCCCCC(=O)Nc1ccc(NC(=S)NC(=O)c2ccc(C(C)(C)C)cc2)cc1.Cl
2. CN(C)CCCCC(=O)Nc1ccc(N(C)C(=S)NC(=O)c2ccc(C(C)(C)C)cc2)cc1
3. CN(C)CCCCC(=O)Nc1ccc(NC(=S)NC(=O)c2cccc(Br)c2)cc1

A)
96.2
6.6
70.5

Q) Please look up its inhibition: CCCCCc1ccc(C(=O)NC(=S)Nc2ccc(NC(=O)CCCCN(C)C)cc2)cc1
A) 73.2

---

TESTED SYSTEM: NAD-dependent protein deacetylase sirtuin-1 (Homo sapiens)
MEASUREMENT NOTES: Inhibition of SirT1 in human ARN8 cells assessed as p53 activation at 5 uM by beta-galactosidase reporter gene assay
Type: cell-based
Active and inactive are the calls of the source. The calls are words filed in the database; no cut-off is given here.
Hi! Could you answer with just one of these? yes = active, no = inactive

Q) Dear colleague, could you share the recorded outcome for CN(C)CCCCC(=O)Nc1ccc(NC(=S)NC(=O)c2cccc(Cl)c2)cc1 when you have a moment?
A) no

Q) Would you kindly repeat that for Cc1ccc(C(=O)NC(=S)Nc2ccc(NC(=O)CCCCN(C)C)cc2)cc1 ?
A) no

Q) Now the same for CN(C)CCCCC(=O)Nc1ccc(NC(=S)NC(=O)c2ccc(C(C)(C)C)cc2)cc1.Cl
A) yes

Q) Try CCCc1ccc(C(=O)NC(=S)Nc2ccc(NC(=O)CCCCN(C)C)cc2)cc1 next.
A) no

Q) Please answer likewise for CN(C)CCCCC(=O)Nc1ccc(NC(=S)NC(=O)c2ccc(Br)cc2)cc1
A) no

Q) Next molecule up: Cc1ccccc1C(=O)NC(=S)Nc1ccc(NC(=O)CCCCN(C)C)cc1
A) no

Q) Can you handle CN(C)CCCCC(=O)Nc1ccc(NC(=S)NC(=O)c2ccc(C(C)(C)C)c(Br)c2)cc1 next?
A) no

---

TESTED SYSTEM: NAD-dependent protein deacetylase sirtuin-2 (Homo sapiens, UniProt Q8IXJ6)
Sequence (Q8IXJ6 whole entry): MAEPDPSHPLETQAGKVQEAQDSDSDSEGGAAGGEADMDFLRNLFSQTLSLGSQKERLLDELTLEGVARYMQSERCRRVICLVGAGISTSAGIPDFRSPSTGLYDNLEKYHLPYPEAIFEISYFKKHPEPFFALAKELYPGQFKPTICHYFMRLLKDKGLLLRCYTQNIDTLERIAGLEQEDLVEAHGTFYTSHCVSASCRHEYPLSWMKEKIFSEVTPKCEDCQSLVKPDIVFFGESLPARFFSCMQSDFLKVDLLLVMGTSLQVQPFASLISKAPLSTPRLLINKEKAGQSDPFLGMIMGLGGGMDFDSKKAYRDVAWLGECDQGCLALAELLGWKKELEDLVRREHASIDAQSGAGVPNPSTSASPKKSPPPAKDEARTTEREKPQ
MEASUREMENT NOTES: Inhibition of recombinant human SitT2 by Fluor de Lys fluorescence assay
MEASURE NAME: IC50

Would you please look over these solved cases?
CN(C)CCCCC(=O)Nc1ccc(NC(=S)NC(=O)c2ccccc2)cc1	> 90 µM
CN(C)CCOCCOCCOCCOCCOCC(=O)Nc1ccc(NC(=S)NC(=O)c2ccc(C(C)(C)C)cc2)cc1.Cl	> 90 µM

Kindly consider the entry below.
Q) Endpoint output: IC50 of Cc1ccc(C(=O)NC(=S)Nc2ccc(NC(=O)CCCCN(C)C)cc2)cc1 . Value?
A) > 90 µM

---

TESTED SYSTEM: NAD-dependent protein deacetylase sirtuin-1 (Homo sapiens)
Sequence (whole entry): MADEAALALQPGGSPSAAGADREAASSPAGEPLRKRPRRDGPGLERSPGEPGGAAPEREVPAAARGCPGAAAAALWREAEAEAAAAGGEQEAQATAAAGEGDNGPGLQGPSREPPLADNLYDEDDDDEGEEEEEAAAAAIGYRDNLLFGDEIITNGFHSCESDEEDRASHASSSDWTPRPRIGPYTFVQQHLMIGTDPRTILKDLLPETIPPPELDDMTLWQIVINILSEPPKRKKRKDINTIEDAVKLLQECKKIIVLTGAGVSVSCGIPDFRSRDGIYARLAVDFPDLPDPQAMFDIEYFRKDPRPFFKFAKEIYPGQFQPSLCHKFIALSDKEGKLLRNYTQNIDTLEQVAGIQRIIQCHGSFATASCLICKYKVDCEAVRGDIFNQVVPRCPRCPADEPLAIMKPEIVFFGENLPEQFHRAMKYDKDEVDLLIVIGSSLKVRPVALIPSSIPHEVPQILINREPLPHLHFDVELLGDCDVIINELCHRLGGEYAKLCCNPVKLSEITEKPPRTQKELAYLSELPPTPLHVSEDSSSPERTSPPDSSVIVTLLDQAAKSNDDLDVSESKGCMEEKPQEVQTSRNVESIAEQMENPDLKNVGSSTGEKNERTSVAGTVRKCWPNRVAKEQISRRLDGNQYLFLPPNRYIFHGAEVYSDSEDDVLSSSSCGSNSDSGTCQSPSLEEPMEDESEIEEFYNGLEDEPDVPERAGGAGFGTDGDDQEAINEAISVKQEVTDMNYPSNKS
MEASUREMENT NOTES: Inhibition of SirT1 in human ARN8 cells assessed as p53 activation at 5 uM by beta-galactosidase reporter gene assay
Type: cell-based
Activity calls are given as the source filed them. The rule behind the calls is not given here.
MEASURE NAME: inhibition

Cc1cccc(C(=O)NC(=S)Nc2ccc(NC(=O)CCCCN(C)C)cc2)c1	inactive
CCCCc1ccc(C(=O)NC(=S)Nc2ccc(NC(=O)CCCCN(C)C)cc2)cc1.Cl	inactive
CCCCCc1ccc(C(=O)NC(=S)Nc2ccc(NC(=O)CCCCN(C)C)cc2)cc1	inactive
